Assay: compounds displacing fluorescent DNA intercalator, primary screen, artefact control for HCV NS3 helicase inhibitor project, biochemical, FID fluorescence (AID 1845);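 further: higher means more ethidium bromide displaced from hairpin DNA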
Conditions: DNA fluorescent intercalator displacement, at 7.9 µM
Out of some 290,000 compounds screened, about 490 (0.17%) were called active. No stated cut-off is given here; in the data, active means inhibition above about 37%; inactive means the rest. Shown is part of a subset that was picked to be rich in actives.
Classes used: active, inactive

COMPOUND: CCCNC(=O)N1CCC(c2ccc3c(c2)OCO3)CC1
ASSIGNED_CLASS: inactive
//
COMPOUND: Cc1ccc2c(c1)N(CC(=O)N1CCC(O)CC1)C(=O)CO2
ASSIGNED_CLASS: inactive
//
COMPOUND: O=C1c2ccccc2C(=O)c2c1cccc2N1CCN(Cc2ccccc2)CC1
ASSIGNED_CLASS: inactive
//
COMPOUND: O=C1c2ccccc2C(=O)c2c1cccc2N1CCN(CCO)CC1
ASSIGNED_CLASS: active
//
COMPOUND: OCCN1CCN(c2nnc(-c3ccccc3)c3ccccc23)CC1
ASSIGNED_CLASS: inactive
//
COMPOUND: CCC1OC(c2ccc([N+](=O)[O-])cc2)=Nc2ccccc21 (stereo unspecified)
ASSIGNED_CLASS: inactive

Just for reference, PubChem BioAssay AID1845 is where these values come from.
